Square brackets hold non-standard residues; d marks the D form. Peptide text beside a SMILES is read from it. Tle = CC(C)(C)[C@H](N)C(=O)O; hLys = NCCCCC[C@H](N)C(=O)O
Below are compounds with their IC50 as measured on Neurotensin receptor type 1 (Homo sapiens, UniProt P30989).
Sequence (P30989 whole entry): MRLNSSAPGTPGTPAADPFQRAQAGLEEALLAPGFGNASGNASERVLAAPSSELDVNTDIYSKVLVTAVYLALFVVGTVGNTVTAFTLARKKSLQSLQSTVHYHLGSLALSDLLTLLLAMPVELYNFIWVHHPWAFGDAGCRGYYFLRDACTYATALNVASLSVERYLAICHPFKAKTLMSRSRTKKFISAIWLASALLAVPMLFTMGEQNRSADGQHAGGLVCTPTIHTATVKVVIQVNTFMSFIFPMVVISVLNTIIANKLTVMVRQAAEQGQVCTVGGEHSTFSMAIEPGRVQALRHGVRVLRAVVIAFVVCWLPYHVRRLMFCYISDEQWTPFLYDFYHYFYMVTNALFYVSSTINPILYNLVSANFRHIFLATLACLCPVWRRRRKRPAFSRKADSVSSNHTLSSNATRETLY
I'd appreciate it if you included the unit after the number.

Field: example entries. Status: answers known.
compound	IC50
CC[C@H](C)[C@H](NC(=O)[C@H](Cc1ccc(O)cc1)NC(=O)[C@@H]1CCCN1C(=O)[C@@H](N)CCCN=C(N)NC(=O)[C@@H](N)CCCCN)C(=O)N[C@@H](CC(C)C)C(=O)O	300 pM
CC[C@H](C)[C@H](NC(=O)[C@H](Cc1ccc(O)cc1)NC(=O)[C@@H]1CCCN1C(=O)[C@@H](N)CCC/N=C(/N)NC(=O)[C@@H](N)CCCN=C(N)N)C(=O)N[C@@H](CC(C)C)C(=O)O	400 pM
CC[C@H](C)[C@H](NC(=O)[C@H](Cc1ccc(O)cc1)NC(=O)[C@@H]1CCCN1C(=O)[C@@H](N)CCC/N=C(/N)NC(=O)[C@@H](N)CCCCNC)C(=O)N[C@@H](CC(C)C)C(=O)O	340 pM
CC(C)C[C@H](NC(=O)[C@@H](NC(=O)[C@H](Cc1ccc(O)cc1)NC(=O)[C@@H]1CCCN1C(=O)[C@H](CCCNC(=N)N)NC(=O)[C@@H](N)CCCCCN)C(C)(C)C)C(=O)O (H-[hLys]RPY[Tle]L-OH)	5710 pM

Now for the compound whose IC50 we want.
Per the records, this compound ( CC(C)C[C@H](NC(=O)[C@@H](NC(=O)[C@H](Cc1c[nH]c2ccccc12)NC(=O)[C@@H]1CCCN1C(=O)[C@@H](N)CCCN=C(N)NC(=O)[C@@H](N)CCCCCN)C(C)(C)C)C(=O)O (H-R(hLys)PW[Tle]L-OH) ) has IC50 equal to 133000 pM
